Biological target: recombinant human tissue transglutaminase (Homo sapiens)
Construct: made in house
Sequence (P21980 1-687): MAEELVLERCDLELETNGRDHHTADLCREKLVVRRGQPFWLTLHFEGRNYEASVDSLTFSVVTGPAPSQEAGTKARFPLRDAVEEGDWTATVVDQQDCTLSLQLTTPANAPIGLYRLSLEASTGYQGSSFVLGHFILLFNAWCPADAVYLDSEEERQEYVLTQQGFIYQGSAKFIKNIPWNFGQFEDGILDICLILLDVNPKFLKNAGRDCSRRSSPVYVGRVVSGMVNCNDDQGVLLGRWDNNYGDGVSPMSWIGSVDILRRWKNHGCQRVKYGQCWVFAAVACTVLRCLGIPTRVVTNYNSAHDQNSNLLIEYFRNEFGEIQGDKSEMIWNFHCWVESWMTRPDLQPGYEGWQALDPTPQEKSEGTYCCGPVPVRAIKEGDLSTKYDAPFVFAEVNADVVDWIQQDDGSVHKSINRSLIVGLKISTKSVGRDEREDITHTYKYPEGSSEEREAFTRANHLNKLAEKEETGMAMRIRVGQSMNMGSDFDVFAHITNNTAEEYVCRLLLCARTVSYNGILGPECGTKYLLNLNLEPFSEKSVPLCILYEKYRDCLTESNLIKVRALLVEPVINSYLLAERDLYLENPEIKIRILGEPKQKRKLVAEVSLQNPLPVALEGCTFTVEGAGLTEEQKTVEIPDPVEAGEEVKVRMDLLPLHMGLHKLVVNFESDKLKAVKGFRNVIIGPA
Assay: tTGase inhibition assay, residual activity by glutamate dehydrogenase coupled assay
Type: biochemical
Details: dihydroisoxazoles, Table 1
Item-by-item account of Ki
Numeric only. Scale: µM

Task: Report Ki for COC(=O)[C@H](CC(=O)NCC1CC(Br)=NO1)NC(=O)OCc1ccccc1 (stereo partly shown) please.
Result: 870

Task: Query O=C(N[C@@H](Cc1ccccc1)C(=O)OCC1CC(Br)=NO1)OCc1ccccc1 (stereo partly shown) next
Result: 1300

Task: What about C[C@H](NC(=O)OCc1ccccc1)C(=O)NCC1CC(Br)=NO1 (stereo partly shown) ?
Result: 910

Task: Cool, now O=C(C[C@H](NC(=O)OCc1ccccc1)C(=O)NCC1CC(Br)=NO1)NCc1ccccc1 (stereo partly shown)
Result: 240

Task: Lookup CN(CC1CC(Br)=NO1)C(=O)[C@H](Cc1ccccc1)NC(=O)OCc1ccccc1 (stereo partly shown)
Result: 260

Others:
Task: // lookup Ki for CC(=O)N[C@@H](Cc1ccccc1)C(=O)NCC1CC(Br)=NO1 (stereo partly shown)
Result: 2700

Task: For COC(=O)[C@H](CCC(=O)NCC1CC(Br)=NO1)NC(=O)OCc1ccccc1 (stereo partly shown) then?
Result: 1600
